# Test system: BT-549 breast
# PROCEDURE SUMMARY: NCI tumour cell line growth inhibition, 48 h
READOUT KIND: GI50

Observe how each entry below is paired with its result.
> print(dat)
                                   compound  readout.kind     result
1  Cc1ccc(-c2nc3nc(-c4ccc(F)cc4)nc(N4CCNCC4)c3o2)cc1          GI50    13.6 µM
2  C[C@@H](N)COc1ccc(-c2cnc3ccc(N[C@H](C)c4cccc(F)c4)nn23)cc1          GI50    1.68 µM
3  Cc1ccccc1C1=C(c2cn(C)c3ccccc23)C(=O)NC1=O          GI50  > 21.8 µM
4                  Oc1cc(N2CC2)c(O)cc1N1CC1          GI50    1.84 µM
5  CCCCCCC1N=C(N)N=C(N)N1c1cccc(Cl)c1 (stereo not drawn)          GI50   0.506 µM
6     Cc1ccc(C)c2c1C(=O)N(c1ccc(F)cc1F)C2=O          GI50   > 100 µM
7  N#Cc1c(NCc2ccccc2)nc(NCc2ccccc2)c(C#N)c1-c1ccc(Cl)cc1          GI50    63.6 µM

Now for the compound whose GI50 we want.
Input line: Entry under review: CS(=O)(=O)N1CCC(n2c(=O)c(Oc3ccc(F)cc3F)cc3cnc(NC4CCOCC4)nc32)CC1 . Reported GI50?
Output line: 24.5 µM
